# experimentalTarget: Human C3 (Complement tech cat #A113c) (human, UniProt P01024 23-1663)
# Sequence (P01024 23-1663 limits assumed): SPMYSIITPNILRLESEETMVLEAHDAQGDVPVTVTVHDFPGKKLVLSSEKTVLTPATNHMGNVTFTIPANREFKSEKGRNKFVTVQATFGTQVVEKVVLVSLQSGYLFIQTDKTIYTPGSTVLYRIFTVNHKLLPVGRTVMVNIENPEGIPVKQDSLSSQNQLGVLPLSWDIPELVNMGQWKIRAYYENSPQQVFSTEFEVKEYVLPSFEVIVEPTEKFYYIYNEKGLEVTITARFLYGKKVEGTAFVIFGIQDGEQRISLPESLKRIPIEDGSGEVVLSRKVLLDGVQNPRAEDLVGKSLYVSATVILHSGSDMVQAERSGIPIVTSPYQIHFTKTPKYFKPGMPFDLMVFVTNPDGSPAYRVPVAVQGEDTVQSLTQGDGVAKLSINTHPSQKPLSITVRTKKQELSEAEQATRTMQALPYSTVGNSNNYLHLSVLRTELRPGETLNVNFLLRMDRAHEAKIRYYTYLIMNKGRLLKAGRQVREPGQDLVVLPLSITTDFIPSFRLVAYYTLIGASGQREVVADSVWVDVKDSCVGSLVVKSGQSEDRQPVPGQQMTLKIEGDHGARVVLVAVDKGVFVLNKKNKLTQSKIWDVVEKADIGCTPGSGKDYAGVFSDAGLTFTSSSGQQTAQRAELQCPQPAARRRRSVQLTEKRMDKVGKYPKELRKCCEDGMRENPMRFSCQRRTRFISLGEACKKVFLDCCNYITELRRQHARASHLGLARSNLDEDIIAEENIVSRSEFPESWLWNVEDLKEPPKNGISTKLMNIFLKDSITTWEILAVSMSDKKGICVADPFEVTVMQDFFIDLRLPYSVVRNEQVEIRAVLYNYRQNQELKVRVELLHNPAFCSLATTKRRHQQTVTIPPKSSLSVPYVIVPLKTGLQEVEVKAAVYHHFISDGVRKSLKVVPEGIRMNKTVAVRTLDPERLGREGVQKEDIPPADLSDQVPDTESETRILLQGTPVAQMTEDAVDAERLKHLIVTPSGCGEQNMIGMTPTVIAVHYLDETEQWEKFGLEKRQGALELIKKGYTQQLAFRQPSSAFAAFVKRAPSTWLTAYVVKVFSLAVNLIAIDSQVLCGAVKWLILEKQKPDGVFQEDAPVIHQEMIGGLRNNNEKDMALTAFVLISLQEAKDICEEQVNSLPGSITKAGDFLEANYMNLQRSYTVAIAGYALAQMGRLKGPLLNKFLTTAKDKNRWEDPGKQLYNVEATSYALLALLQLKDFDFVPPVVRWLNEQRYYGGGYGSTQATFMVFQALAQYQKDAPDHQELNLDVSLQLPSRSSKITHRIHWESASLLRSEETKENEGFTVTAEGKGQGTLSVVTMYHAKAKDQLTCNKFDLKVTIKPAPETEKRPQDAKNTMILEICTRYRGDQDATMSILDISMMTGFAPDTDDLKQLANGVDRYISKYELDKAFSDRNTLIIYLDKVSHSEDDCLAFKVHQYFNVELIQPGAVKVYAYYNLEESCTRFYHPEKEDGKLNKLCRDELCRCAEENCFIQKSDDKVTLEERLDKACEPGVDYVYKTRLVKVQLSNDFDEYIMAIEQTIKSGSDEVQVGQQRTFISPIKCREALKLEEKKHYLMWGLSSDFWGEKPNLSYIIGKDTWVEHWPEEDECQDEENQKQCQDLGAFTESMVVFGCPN
# testName: cell-based or functional assay
Positions of bridges follow the written chain, without caps; N, C: chain ends.
recordedEndpoint: inhibition of hemolysis IC50

query: Please report the recorded inhibition of hemolysis IC50 for Ac-ICIWQKWGEHRCT-NH2 (disulfide 2-12; SMILES CC[C@H](C)[C@H](NC(C)=O)C(=O)N[C@H]1CSSC[C@@H](C(=O)N[C@H](C(N)=O)[C@@H](C)O)NC(=O)[C@H](CCCNC(=N)N)NC(=O)[C@H](Cc2c[nH]cn2)NC(=O)[C@H](CCC(=O)O)NC(=O)CNC(=O)[C@H](Cc2c[nH]c3ccccc23)NC(=O)[C@H](CCCCN)NC(=O)[C@H](CCC(N)=O)NC(=O)[C@H](Cc2c[nH]c3ccccc23)NC(=O)[C@H]([C@@H](C)CC)NC1=O) [Compound 7] .
result: < 1000 nM
